test system: AmpC beta-lactamase (E. coli); assay: AmpC inhibition relative to DMSO; higher = more inhibition; details: 11 µM; detergent: 0.01% Triton X-100
Readings of AmpC inhibition for the listed compounds
Note to self: number, then unit, no commentary.

SMILES_CODE | TESTED_SYSTEM | AmpC inhibition
c1cc(SSc2ccns2)sn1 | AmpC beta-lactamase (E. coli) | 6.83%
ClC1=CC=C(C2=CSC(N/N=C3CCCC/3)=N2)C=C1 | AmpC beta-lactamase (E. coli) | 4.35%
O=C1C(Cl)=C(NCCN2CCOCC2)C(=O)c2ncccc21 | AmpC beta-lactamase (E. coli) | 5.66%
CC(C)([C@](C1=O)(C2=O)C/C=C(C)\C)[C@@H](C[C@]31C[C@@H](C(C)(OC3=C2C(C4=CC(O)=C(C=C4)O)=O)C)C/C=C(C)\C)C/C=C(C)\C | AmpC beta-lactamase (E. coli) | 4.79%
COc1cc(/C=C/c2cc(/C=C/c3ccc(O)c(OC)c3)n(-c3ccc(C(=O)[O-])cc3)n2)ccc1O.[Na+] | AmpC beta-lactamase (E. coli) | 2.98%

In: Fill in the blank: the reported AmpC inhibition of CCCCCOc1ccc(/C=C\c2cccc(O)c2C(=O)O)cc1 is ____.
Out: 7.71%
